Assign GCGR EC50 to each entry below.
molecular target: human glucagon receptor (human, UniProt P47871 26-477); test: cell-based or functional assay
Sequence (P47871 26-477): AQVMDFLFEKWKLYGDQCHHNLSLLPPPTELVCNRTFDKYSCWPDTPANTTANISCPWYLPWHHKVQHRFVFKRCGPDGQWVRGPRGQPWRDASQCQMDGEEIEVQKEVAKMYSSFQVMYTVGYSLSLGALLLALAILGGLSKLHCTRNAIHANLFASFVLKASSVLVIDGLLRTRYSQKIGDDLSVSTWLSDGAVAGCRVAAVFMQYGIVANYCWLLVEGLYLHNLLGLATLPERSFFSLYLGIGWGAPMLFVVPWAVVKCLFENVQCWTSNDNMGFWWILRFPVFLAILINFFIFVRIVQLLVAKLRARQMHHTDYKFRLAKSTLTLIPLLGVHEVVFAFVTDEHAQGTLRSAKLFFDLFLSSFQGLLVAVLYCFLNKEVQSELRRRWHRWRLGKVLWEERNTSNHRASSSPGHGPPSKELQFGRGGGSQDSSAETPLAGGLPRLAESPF
Please reply with the bare figure in nM and do not write the unit itself.

Qu. Query: GCGR EC50; subject: HSQGTFTSDYSKYLDSRRAQDFVQWLMNTKRNRNNIAK (D-Ser at position 2; K(palmitoyl) at position 38; C-terminal amide) [OXM110]
Ans. 0.31

Qu. Would you kindly repeat that for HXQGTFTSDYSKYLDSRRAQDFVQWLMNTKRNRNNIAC (Aib at position 2; C7 = Cys(Oxa4-cholesterol) at position 38; C-terminal amide) [OXM216] ?
Ans. 0.63

Qu. Would you mind doing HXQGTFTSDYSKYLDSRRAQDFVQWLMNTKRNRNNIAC (Aib at position 2; C4 = Cys(cholest-5-en-3-yl{[(2R)-3-amino-2-(amino)-3-oxopropyl]thio}acetate) at position 38; C-terminal amide) [OXM70] as well?
Ans. 2.4

The values you see were collected from patent US20120165503A1.
